Tested on: SK-OV-3 ovarian
protocol.notes: NCI tumour cell line growth inhibition, 48 h; in the data active = GI50 below about 0.43 µM; inactive = the rest
Response enum: active, inactive

compound=O=C(C(=CN1CCN(C(=O)c2ccco2)C1=S)C(=O)c1ccccc1)c1ccccc1 tested_on="SK-OV-3 ovarian" category_label=inactive

## Task How was O=C1/C(=C/c2ccc([N+](=O)[O-])o2)Oc2ccc(Cl)cc21 classified in this test?
## Result inactive

## Task Test call for this compound, please: FC(F)(F)c1cccc(-c2[nH]ncc2-c2nnnn2-c2ccccc2)c1
## Result inactive

* * *

System: MCF7 breast
protocol.notes: NCI tumour cell line growth inhibition, 48 h
Catalogue of TGI readings, one per entry.

// known answers, use as guide
compound=N=C(CC(=O)Nc1ccccn1)c1ccccc1 tested_on="MCF7 breast" recorded_measurement="> 100 µM"
compound="CC(NNC(=O)c1ccncc1)c1cccc(C(F)(F)F)c1 (stereo not given)" tested_on="MCF7 breast" recorded_measurement="> 100 µM"
compound=O=C1C=CC(=O)c2c1nc(CBr)[nH]c2=O tested_on="MCF7 breast" recorded_measurement="> 100 µM"
compound=COC(=O)c1c(O)ccc2c1c1c(n2Cc2cccc(C)c2)C(=O)c2ccccc2C1 tested_on="MCF7 breast" recorded_measurement="> 75 µM"
compound=COc1cccc(OC)c1NC(=O)C(=O)Nn1c(NNC(=O)c2ccncc2)nc2ccccc2c1=O tested_on="MCF7 breast" recorded_measurement="> 100 µM"

## Task I'd like to know its TGI. The compound in question is CSc1nc(NCc2ccccc2)c2cnn(COCCO)c2n1
## Result > 100 µM

## Task Give the measured TGI of O=C1NC(=NCCc2ccc(Br)cc2)S/C1=C\c1ccc2ncccc2c1 .
## Result > 25 µM

## Task Fill blank: measured TGI of the compound CC[C@]12C=CCN3CC[C@@]4(c5cc(Br)c(OC)cc5N(C)[C@H]4[C@@](O)(C(=O)NC(Cc4c[nH]c5ccccc45)C(=O)OC)[C@@H]1O)[C@@H]32 (stereo not given in full) is ____.
## Result > 100 µM

## Task So what's the measured TGI for this one? COc1ccc(-c2[nH]ncc2Nc2cc(OC)c(OC)c(OC)c2)cc1
## Result > 100 µM

## Task Using the record for C=CCOC(=O)Cn1ccc(=O)[nH]c1=O , report its TGI.
## Result > 100 µM

* * *

Tested on: NCI-H23 lung
protocol.notes: NCI tumour cell line growth inhibition, 48 h; in the data active means GI50 below about 0.43 µM; inactive means the rest
The categories you may choose from are active, inactive

Solved cases (8 shown):
query_smiles=O=C(CI)Nc1ccc(Br)cc1 category_label=inactive
query_smiles=O=C1Cc2cc(CCN3CCNCC3)c(Cl)cc2N1 category_label=inactive
query_smiles=O=C1/C(=C/c2ccc(C(F)(F)F)cc2)COc2ccc(O)c(O)c21 category_label=inactive
query_smiles=CC1=C[C@@H]2c3c(c(O)c(O)c4oc5cc(O)cc(O)c5c(=O)c34)[C@@H](c3cc(O)c(O)c4oc5cc(O)cc(O)c5c(=O)c34)[C@@H]2C(C)(C)C1 category_label=inactive
query_smiles=CCC(=O)Nc1nnc(Cc2ccc(OC)c(OC)c2)s1 category_label=inactive
query_smiles=COc1cc(C(=O)O[C@H](C(=O)NCCCCNC(=O)[C@@H](OC(=O)c2cc(OC)cc3c(C)cccc23)[C@]2(C)CO2)[C@]2(C)CO2)c2cccc(C)c2c1 category_label=active
query_smiles=Cc1ccc(-c2nc3sc(C)cn3c2/C=C2\C(=O)Nc3ccc(Cl)cc32)cc1 category_label=inactive
query_smiles=CC/C=C\C[C@H]1C/C=C2/C(=O)C(Cl)=C[C@@H]2C/C=C\CCCC(=O)O1 category_label=inactive

## Task Status in this test for C(=N\Nc1ccc2ccccc2n1)/c1ccccn1 ?
## Result inactive

## Task Would you mind telling me which call this test gave Cc1c(C(N)=O)sc2nc(C)n(/N=c3\scc(-c4ccccc4)n3Cc3ccccc3)c(=O)c12 ?
## Result inactive

## Task Assay outcome for Cn1c(I)c(C#C[Si](C)(C)C)c(=O)[nH]c1=O : what was it?
## Result inactive

## Task Check the results log: what was the call for COc1cnccc1Nc1nc(-c2nn(Cc3c(F)cc(OCCO)cc3F)c3ccccc23)ncc1OC ?
## Result inactive

## Task Outcome logged for COc1ccc(-c2c(-c3ccc(C#N)c(F)c3)nc(N3CCC(N)CC3)n(C)c2=O)cc1F in this assay:
## Result inactive

## Task // param item: CN(C)c1ccc2[nH]c3c(C(N)=O)cc(=O)c(=O)c=3oc2c1 ; yields the recorded call
## Result inactive

// provenance: PubChem BioAssay (NCI)
